Measured values drawn from BigSolDB 2.1 for this set.

# conditionSet: in n-propanol, 310.65 K
propertyMeasured: solubility (mole fraction)
Give only the figure.

Prompt: Give the measured solubility (mole fraction) of Clc1ccc2c(c1)Nc1ccccc1S2 .
Completion: 0.00649

* * *

# conditionSet: in n-propanol, 295.65 K
propertyMeasured: solubility (mole fraction)

Prompt: Query: solubility (mole fraction); subject: Clc1ccc2c(c1)Nc1ccccc1S2
Completion: 0.00509

* * *

# conditionSet: in acetone, 283.15 K
propertyMeasured: solubility (mole fraction)

Prompt: State the recorded solubility (mole fraction) for this entry: Clc1ccc2c(c1)Nc1ccccc1S2
Completion: 0.0268

* * *

# conditionSet: in acetone, 303.15 K
propertyMeasured: solubility (mole fraction)
Could you respond with only the numeric value?

Prompt: Report solubility (mole fraction) for Clc1ccc2c(c1)Nc1ccccc1S2 please.
Completion: 0.0421
